# Run Description: Half life in presence of sodium dimethyldithiocarbamate
# Format: ADME
# Study Conditions: solution containing sodium dimethyldithiocarbamate
In this section we review reported half-life values for a set of compounds.

- Compound: "COC1=CC(=O)c2c(c(COP(N)(=O)N(CCBr)CCBr)cn2C)C1=O (centres undefined)"
  half-life: "14 min"
- Compound: "COC1=CC(=O)c2c(c(COP(N)(=O)N3CCOCC3)cn2C)C1=O (centres undefined)"
  half-life: "34 min"
- Compound: "COC1=CC(=O)c2c(cc(COP(N)(=O)N3CCOCC3)n2C)C1=O (centres undefined)"
  half-life: "659 min"
- Compound: "COC1=CC(=O)c2c(cc(COP(N)(=O)N(CCBr)CCBr)n2C)C1=O (centres undefined)"
  half-life: "26 min"

###

# key: entry, value: half-life
# Run Description: Half life in presence of glutathione
# Assay type: ADME
# Study Conditions: solution containing glutathione
Assay Metric: half-life (h)

- Molecule: "COC1=CC(=O)c2c(c(COP(N)(=O)N3CCOCC3)cn2C)C1=O (centres undefined)"
  Assay Metric: "half-life"
  Obs Value: 1.38
- Molecule: "COC1=CC(=O)c2c(c(COP(N)(=O)N(CCBr)CCBr)cn2C)C1=O (centres undefined)"
  Assay Metric: "half-life"
  Obs Value: 0.583
- Molecule: "COC1=CC(=O)c2c(cc(COP(N)(=O)N(CCBr)CCBr)n2C)C1=O (centres undefined)"
  Assay Metric: "half-life"
  Obs Value: 10.9
- Molecule: "COC1=CC(=O)c2c(cc(COP(N)(=O)N3CCOCC3)n2C)C1=O (centres undefined)"
  Assay Metric: "half-life"
  Obs Value: 11.9
